All values here come from patent US20230233569A1.

Below is a list of entries, each paired with its recorded pIC50 value.
biological target: KRAS G12C (Homo sapiens, UniProt P01116+P62937, G12C); experiment: Disruption of BRAF RBD interaction with Ras (FRET / MOA assay, with Cyclophilin A); type: biochemical; conditions: read-out: KRAS G12C FRET data, IC50
Sequence (P01116 1-169 isoform P01116-2 G12C): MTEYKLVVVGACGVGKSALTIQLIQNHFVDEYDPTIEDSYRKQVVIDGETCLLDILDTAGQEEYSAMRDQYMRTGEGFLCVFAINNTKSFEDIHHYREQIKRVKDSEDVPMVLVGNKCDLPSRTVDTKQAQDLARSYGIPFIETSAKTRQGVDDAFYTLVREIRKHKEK
Sequence (P62937 whole entry): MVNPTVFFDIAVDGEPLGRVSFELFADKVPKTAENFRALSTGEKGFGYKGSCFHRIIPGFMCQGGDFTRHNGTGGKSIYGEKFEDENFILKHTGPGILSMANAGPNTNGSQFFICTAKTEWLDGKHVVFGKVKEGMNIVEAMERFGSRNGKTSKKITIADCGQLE
pIC50: −log10 of the molar value.

molecule	systemName	measurementKind	obsValue
CCn1c(-c2cccnc2[C@H](C)OC)c2c3cc(ccc31)-c1csc(n1)C[C@H](NC(=O)[C@H](C(C)C)N(C)C(=O)N1C[C@@H]3CN(C)C[C@@H]31)C(=O)N1CCC[C@H](N1)C(=O)OCC(C)(C)C2 (atropisomer, axis not shown)	KRAS G12C (Homo sapiens, UniProt P01116+P62937, G12C)	pIC50	5.00 to 6.00
CCn1c(-c2cccnc2[C@H](C)OC)c2c3cc(ccc31)-c1cc(O)cc(c1)C[C@H](NC(=O)[C@H](C(C)C)N(C)C(=O)C1(N)CC1)C(=O)N1CCC[C@H](N1)C(=O)OCC(C)(C)C2	KRAS G12C (Homo sapiens, UniProt P01116+P62937, G12C)	pIC50	7.00 to 8.00
CCn1c(-c2cccnc2[C@H](C)OC)c2c3cc(ccc31)-c1cc(O)cc(c1)C[C@H](NC(=O)[C@H](C(C)C)N(C)C(=O)[C@H]1CCN(C(=O)[C@@]3(C)CCCN3)C1)C(=O)N1CCC[C@H](N1)C(=O)OCC(C)(C)C2	KRAS G12C (Homo sapiens, UniProt P01116+P62937, G12C)	pIC50	7.00 to 8.00
CCn1c(-c2cccnc2[C@H](C)OC)c2c3cc(ccc31)-c1csc(n1)C[C@H](NC(=O)[C@H](C(C)C)N(C)C(=O)N1C[C@H](OC)[C@@H](N)C1)C(=O)N1CCC[C@H](N1)C(=O)OCC(C)(C)C2 (atropisomer, axis not shown)	KRAS G12C (Homo sapiens, UniProt P01116+P62937, G12C)	pIC50	6.00 to 7.00
CCn1c(-c2cccnc2[C@H](C)OC)c2c3cc(ccc31)-c1csc(n1)C[C@H](NC(=O)[C@H](C(C)C)N(C)C(=O)N1C3CC1CS(=O)(=O)C3)C(=O)N1CCC[C@H](N1)C(=O)OCC(C)(C)C2	KRAS G12C (Homo sapiens, UniProt P01116+P62937, G12C)	pIC50	6.00 to 7.00

Look up and state reported pIC50 for CCn1c(-c2cccnc2[C@H](C)OC)c2c3cc(ccc31)-c1csc(n1)C[C@H](NC(=O)[C@H](C(C)C)N(C)C(=O)N1C[C@H]3CN(C)C[C@H]3C1)C(=O)N1CCC[C@H](N1)C(=O)OCC(C)(C)C2
6.00 to 7.00

Look up and state reported pIC50 for CCn1c(-c2cccnc2[C@H](C)OC)c2c3cc(ccc31)-c1cc(O)cc(c1)C[C@H](NC(=O)[C@H](C(C)C)N(C)C(=O)[C@@H]1CCN[C@@H]1c1ccccc1)C(=O)N1CCC[C@H](N1)C(=O)OCC(C)(C)C2 (atropisomer, axis not shown)
7.00 to 8.00

Look up and state reported pIC50 for CCn1c(-c2cnccc2COC)c2c3cc(ccc31)-c1cc(O)cc(c1)C[C@H](NC(=O)C1CCCC1C(F)F)C(=O)N1CCC[C@H](N1)C(=O)OCC(C)(C)C2 (some centres unmarked)
5.00 to 6.00

###

Target: NRAS Q61R (Homo sapiens, UniProt P01111+P62937, Q61R)
Sequence (P01111 whole entry Q61R): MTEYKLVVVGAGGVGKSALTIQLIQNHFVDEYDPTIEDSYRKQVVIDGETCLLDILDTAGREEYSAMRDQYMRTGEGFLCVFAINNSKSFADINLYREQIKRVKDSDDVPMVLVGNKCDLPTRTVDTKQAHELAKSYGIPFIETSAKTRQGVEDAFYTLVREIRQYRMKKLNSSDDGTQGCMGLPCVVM
Sequence (P62937 whole entry): as the sequence (P62937 whole entry) above
Assay: Disruption of BRAF RBD interaction with Ras (FRET / MOA assay, with Cyclophilin A)
Format: biochemical
Conditions: NRAS Q61R; read-out: NRAS Q61R FRET data IC50
Source text: Disruption of B-Raf Ras-Binding Domain (BRAF^RBD) Interaction with K-Ras by Compounds of the Invention (Also Called a FRET Assay or an MOA Assay) Note—The following protocol describes a procedure for monitoring disruption of K-Ras G12C (GMP-PNP) binding to BRAF^RBD by a compound of the invention. This protocol may also be executed substituting other Ras proteins or nucleotides. […]
pIC50: −log10 of the molar value.
Below is a list of entries, each paired with its recorded pIC50 value.

Consider the worked cases shown below.
compound	pIC50
CCn1c(-c2cccnc2[C@H](C)OC)c2c3cc(ccc31)-c1csc(n1)C[C@H](NC(=O)[C@H](C(C)C)N(C)C(=O)N1CC([C@H](C)OC)C1)C(=O)N1CCC[C@H](N1)C(=O)OCC(C)(C)C2 (atropisomer, axis not shown)	7.00 to 8.00
CCn1c(-c2cccnc2[C@H](C)OC)c2c3cc(ccc31)-c1csc(n1)C[C@H](NC(=O)[C@H](C(C)C)N(C)C(=O)N1CCC13CCN(C)CC3)C(=O)N1CCC[C@H](N1)C(=O)OCC(C)(C)C2	6.00 to 7.00
CCn1c(-c2cccnc2[C@H](C)OC)c2c3cc(ccc31)-c1csc(n1)C[C@H](NC(=O)N1CCCC1)C(=O)N1CCC[C@H](N1)C(=O)OCC(C)(C)C2	6.00 to 7.00

Look up and state reported pIC50 for CCC[C@H]1CCN1C(=O)N[C@H]1Cc2nc(cs2)-c2ccc3c(c2)c(c(-c2cccnc2[C@H](C)OC)n3CC)CC(C)(C)COC(=O)[C@@H]2CCCN(N2)C1=O
6.00 to 7.00

Look up and state reported pIC50 for C=CC(=O)N1CC[C@H](C(=O)N(C)[C@H](C(=O)N[C@H]2Cc3cc(O)cc(c3)-c3ccc4c(c3)c(c(-c3cccnc3)n4C(C)(C)C#N)CC(C)(C)COC(=O)[C@@H]3CCCN(N3)C2=O)C(C)C)C1
5.00 to 6.00

###

molecular target: KRAS G12S (Homo sapiens, UniProt P01116+P62937, G12S); test: Disruption of BRAF RBD interaction with Ras (FRET / MOA assay, with Cyclophilin A); type: biochemical; conditions: read-out: KRAS G12S FRET data, IC50
Sequence (P01116 1-169 isoform P01116-2 G12S limits assumed, one chain of several): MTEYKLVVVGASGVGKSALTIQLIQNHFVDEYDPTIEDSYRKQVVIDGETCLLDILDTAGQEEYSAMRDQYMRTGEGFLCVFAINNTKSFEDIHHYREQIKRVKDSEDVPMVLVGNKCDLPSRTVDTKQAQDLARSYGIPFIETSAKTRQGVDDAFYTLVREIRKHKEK
Below is a list of entries, each paired with its recorded IC50 value.

CCn1c(-c2cccnc2[C@H](C)OC)c2c3cc(ccc31)-c1csc(n1)C[C@H](NC(=O)[C@H](C(C)C)N(C)C(=O)N1C[C@H](C)N(C)C[C@@H]1C)C(=O)N1CCC[C@H](N1)C(=O)OCC(C)(C)C2 1000 to 10000 nM

Now consider a different compound.
Look up and state reported IC50 for CCn1c(-c2cccnc2[C@H](C)OC)c2c3cc(ccc31)-c1cc(O)cc(c1)C[C@H](NC(=O)[C@H](C(C)C)N(C)C(=O)[C@H]1CCN(C(=O)CN(C)C)C1)C(=O)N1CCC[C@H](N1)C(=O)OCC(C)(C)C2
10 to 100 nM

###

Below is a list of entries, each paired with its recorded pIC50 value.
target: KRAS G12S (Homo sapiens, UniProt P01116+P62937, G12S); test: Disruption of BRAF RBD interaction with Ras (FRET / MOA assay, with Cyclophilin A); type: biochemical; details: read-out: KRAS G12S FRET data, IC50
pIC50: −log10 of the molar value.

compound	pIC50
CCn1c(-c2cccnc2[C@H](C)OC)c2c3cc(ccc31)-c1csc(n1)C[C@H](NC(=O)[C@H](C(C)C)N(C)C(=O)N1CC(C#N)C1)C(=O)N1CCC[C@H](N1)C(=O)OCC(C)(C)C2 (atropisomer, axis not shown) [Example A382]	6.00 to 7.00

Now consider a different compound.
Look up and state reported pIC50 for CCn1c(-c2cccnc2[C@H](C)OC)c2c3cc(ccc31)-c1cc(O)cc(c1)C[C@H](NC(=O)[C@H](C(C)C)N(C)C(=O)C1(CN)CC1)C(=O)N1CCC[C@H](N1)C(=O)OCC(C)(C)C2 [Example A139]
7.00 to 8.00

###

Below is a list of entries, each paired with its recorded IC50 value.
molecular target: KRAS G12V (Homo sapiens, UniProt P01116+P62937, G12V); test: Ras-Raf disruption / FRET / MOA assay (BRAF RBD); type: biochemical; conditions: KRAS G12V FRET data IC50, Ras-Raf disruption, with Cyclophilin A
Sequence (P01116 1-169 isoform P01116-2 G12V limits assumed): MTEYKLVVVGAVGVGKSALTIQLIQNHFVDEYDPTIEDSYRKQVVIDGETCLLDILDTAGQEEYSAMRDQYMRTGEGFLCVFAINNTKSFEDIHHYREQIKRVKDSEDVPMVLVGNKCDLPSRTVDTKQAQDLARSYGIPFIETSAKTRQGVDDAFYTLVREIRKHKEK
Sequence (P62937 whole entry): as the sequence (P62937 whole entry) above

molecule	systemName	measurementKind	obsValue
CCn1c(-c2cccnc2[C@H](C)OC)c2c3cc(ccc31)-c1cc(O)cc(c1)C[C@H](NC(=O)[C@H](C(C)C)N(C)C(=O)CN(C)C(=O)[C@H]1CN1CC(=O)N(C)C)C(=O)N1CCC[C@H](N1)C(=O)OCC(C)(C)C2 (stereo partly shown)	KRAS G12V (Homo sapiens, UniProt P01116+P62937, G12V)	IC50	100 to 1000 nM
CCn1c(-c2cccnc2[C@H](C)OC)c2c3cc(ccc31)-c1cc(O)cc(c1)C[C@H](NC(=O)[C@H](C(C)C)N(C)C(=O)CN(C)C(=O)[C@H]1N[C@H]1C(F)(F)F)C(=O)N1CCC[C@H](N1)C(=O)OCC(C)(C)C2	KRAS G12V (Homo sapiens, UniProt P01116+P62937, G12V)	IC50	10 to 100 nM
CCn1c(-c2cccnc2[C@H](C)OC)c2c3cc(ccc31)-c1cc(O)cc(c1)C[C@H](NC(=O)[C@H](C(C)C)N(C)C(=O)CN(C)C(=O)[C@@H]1CN1CCOC)C(=O)N1CCC[C@H](N1)C(=O)OCC(C)(C)C2 (stereo partly shown)	KRAS G12V (Homo sapiens, UniProt P01116+P62937, G12V)	IC50	10 to 100 nM

Now consider a different molecule.
Look up and state reported IC50 for CCn1c(-c2cccnc2[C@H](C)OC)c2c3cc(ccc31)-c1cc(O)cc(c1)C[C@H](NC(=O)[C@H](C(C)C)N(C)C(=O)[C@H]1CCN1C(=O)[C@@H]1CN1)C(=O)N1CCC[C@H](N1)C(=O)OCC(C)(C)C2
10 to 100 nM
